Source listed as ChEMBL document CHEMBL5113407.

- assay.overview: Kinetic solubility of compound
- Type: physicochemical
- condition.description: read-out: Kinetic_solubility
readout.type: solubility kinetic (µM)
Report as a plain number; the unit µM is understood.

The molecule listed as Cc1ccc(S(=O)(=O)Nc2ccc(CN3CCN(C(=O)c4cc(=O)c5ccccc5n4C)CC3)cc2)cc1 has a reported solubility kinetic of 29
